# System: XIP peptide (Xip251-270)
# protocol summary: small-molecule binders of XIP peptide, primary screen, biochemical, small-molecule microarray, fluorescence 635/667 nm, 0.5 µg/mL protein (AID 1183)
# condition summary: small-molecule microarray binding, fluorescence 635 nm; higher = more signal
Assign a class from recorded composite z-score; defined classes: small value: < 0.09; mid value: ≥ 0.09 and < 0.7; large value: ≥ 0.7

Examples with answers:
compound	class label
CCOC(=O)C[C@H]1[C@H](OC(=O)Cc2ccc3c(c2)OCO3)[C@@H](NC(=O)c2ccc(-c3ccccc3)cc2)c2cc(OCCCO)ccc2N1C(=O)c1ccc2ccccc2n1	mid value
COc1ccc(C(=O)O[C@H]2CC[C@]3(C)C4=C(CCC3C2(C)C)[C@]2(C)CC[C@H]([C@H](C)CCCC(C)C)[C@@]2(C)CC4)cc1 (some centres undefined)	small value
O=C(O)[C@@]1(CCS(=O)(=O)c2ccccc2)COC(c2ccc(OCCCO)cc2)=N1	small value
O=C(NCC(F)(F)F)[C@@H]1c2ccccc2C(=O)N(C2CCCCC2)[C@H]1c1ccc(CO)cc1	mid value
CC(C)C[C@@H]1NC(=O)[C@H]2C[C@@H](C(=O)NCCCCCCN)[C@@H](c3ccc(O)cc3)N2C1=O	large value
COc1ccc(C(O)C2C=CC3C(=O)NC(=O)C3N2Nc2ccccn2)cc1 (centres undefined)	mid value

Kindly state the category for this compound: C=CCC(OC(C)=O)[C@@H]1[C@@H](N(Cc2ccc(-c3cccc(C(F)(F)F)c3)o2)C(=O)Cc2ccc(F)cc2)c2cc(OCCCO)ccc2N1C(=O)Cc1ccc(OC)cc1 (some centres undefined)
small value

GET /class?item= CCCC[C@H]1OB(O)C[C@H]2C1=C(COc1ccccc1)C[C@H]1C(=O)N(C)C(=O)[C@H]12
small value

Dear colleague, I would appreciate it if you could identify the bin for [N-]=[N+]=NCc1ccccc1C[C@]1(C(=O)O)N=C(c2ccc(OCCCO)cc2)O[C@H]1c1ccccc1N=[N+]=[N-] and reply at your convenience.
large value

====

For each entry below, report its composite z-score value.
# assay system: Focal adhesion kinase 1 (Homo sapiens)
# protocol summary: small-molecule microarray binders of FAK, primary screen, biochemical, 635/667 nm fluorescence, BSA, DTT (AID 1130);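 note: composite of spot emission at 667 nm and signal to noise over triplicate slides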
# condition summary: PTK2 binding, 635 nm fluorescence, higher = more signal
Answers are plain numbers.

>>> df
                                   compound       readout_name  numeric_readout
0  C=CC[C@]1(C(=O)NCCCOC)N=C(c2ccc(OCCCO)cc2)O[C@H]1c1ccccc1N=[N+]=[N-]  composite z-score            0.143
1  CC(C)N1C(=O)[C@@]2(Cc3ccccc31)c1ccccc1C(=O)N(C1CCCCC1)[C@H]2c1ccc(CO)cc1  composite z-score          -0.0723
2  O=C(C1N=C(c2ccc(OCCCO)cc2)N(c2ccccc2)O1)N1CCOCC1 (stereo not given)  composite z-score            0.497

Below are 2 compounds. Give each one its composite z-score.
1. [N-]=[N+]=NCc1ccccc1[C@H]1OC(c2ccc(OCCCO)cc2)=N[C@@]1(Cc1ccccc1)C(=O)NCc1ccccc1
2. CC(C)C(=C=CC[C@@H](O)c1ccccc1OCCO)CCO

[0.365, 0.306]

====

# assay system: Luciferin 4-monooxygenase (Photinus pyralis) (UniProt P08659)
# Sequence (P08659 whole entry, looked up): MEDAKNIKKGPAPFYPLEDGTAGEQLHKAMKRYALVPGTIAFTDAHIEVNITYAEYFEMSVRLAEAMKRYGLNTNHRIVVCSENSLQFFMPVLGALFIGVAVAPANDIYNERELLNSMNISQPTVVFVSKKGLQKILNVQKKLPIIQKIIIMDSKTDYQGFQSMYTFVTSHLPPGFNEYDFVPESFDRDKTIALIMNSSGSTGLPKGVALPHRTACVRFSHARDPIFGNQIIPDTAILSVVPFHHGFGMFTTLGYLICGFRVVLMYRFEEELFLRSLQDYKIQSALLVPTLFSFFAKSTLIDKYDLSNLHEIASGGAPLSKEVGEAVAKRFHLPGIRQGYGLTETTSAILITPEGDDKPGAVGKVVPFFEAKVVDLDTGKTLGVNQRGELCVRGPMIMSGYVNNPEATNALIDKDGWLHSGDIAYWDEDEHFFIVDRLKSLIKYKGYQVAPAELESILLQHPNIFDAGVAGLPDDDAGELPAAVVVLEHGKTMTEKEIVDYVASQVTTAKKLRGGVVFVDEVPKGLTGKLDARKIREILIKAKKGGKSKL
# protocol summary: firefly luciferase enzyme inhibitors, primary screen, biochemical, luminescence, purified enzyme, 2006 set (AID 1141);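 note: cell-free assay with purified firefly luciferase at 100 ng per well in PBS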
# condition summary: SteadyGlo luminescence, 30 min, called active from +8 up or from −8 down
The source made the active and inactive calls.
Return exactly one item of Y = active, N = inactive

smiles repr	class label
[N-]=[N+]=Nc1ccccc1[C@H]1OC(c2ccc(OCCCO)cc2)=N[C@@]1(Cc1ccccc1)C(=O)O	Y
C=CCNC(=O)[C@@H]1[C@H]2C(=O)O[C@H](c3ccccc3)[C@H](c3ccccc3)N2[C@H](c2ccccc2OCCO)[C@@]12C(=O)N(C(=O)OCCOC)c1ccc(C#CCNC(N)=O)cc12	N
CCCC#C[Si](O[C@H](CC)c1cn([C@H](CO)Cc2ccccc2)nn1)(C(C)C)C(C)C	N

Field: outcome | Entry: [N-]=[N+]=Nc1ccccc1C[C@@]1(C(=O)NCCN2CCOCC2)N=C(c2ccc(OCCCO)cc2)O[C@@H]1c1ccccc1
N

Call for entry CCOC(=O)[C@H]1C/C=C/C[C@H](C(=O)OCC)C(=O)O[C@H]2[C@@H](OC)O[C@H](CO)[C@@H](OC(=O)Nc3cccc(F)c3)[C@@H]2OC1=O :
N

Record request — test call for COCCOC(=O)N1C(=O)[C@@]2(c3cc(C#CCCO)ccc31)[C@H](C(=O)Nc1nc3ccccc3s1)[C@H]1C(=O)O[C@H](c3ccccc3)[C@H](c3ccccc3)N1[C@@H]2c1ccc(OCCO)cc1
N
